measurement.protocol: Pharmacokinetic study in rats after oral administration
Type: in vivo, SD rats
measurement.conditions: male, SD, rat, plasma, po, 50 mg/kg, silybin 50 mg/kg oral, with baicalein 50 mg/kg, read-out: CLz/F, free silybin (converted)
experimental.readout: CL/F

The molecule listed as COc1cc([C@H]2Oc3cc([C@H]4Oc5cc(O)cc(O)c5C(=O)[C@@H]4O)ccc3O[C@@H]2CO)ccc1O [silybin A] shows CL/F equal to 233 mL/min/kg

The molecule listed as COc1cc([C@@H]2Oc3cc([C@H]4Oc5cc(O)cc(O)c5C(=O)[C@@H]4O)ccc3O[C@H]2CO)ccc1O [silybin B] shows CL/F equal to 298 mL/min/kg
